System: MDA-N
method: NCI tumour cell line growth inhibition, 48 h
Calls of active or inactive are those of the source. No stated cut-off is given here; in the data, active = GI50 up to about 1.1 µM and inactive = higher.
Possible outcomes: label 1 for active, label 0 for inactive

compound	assignedCategory
c1ccc2c(c1)CCCN1CCc3ccccc3C21 (stereo not drawn)	label 0
Cc1ccc(C(=O)c2[nH]c(Nc3cc(C)ccn3)c(C(=S)Nc3ccccc3)c2N)cc1	label 0
C1CC[C@H]2SSC3CCCC[C@H]3SSC2C1 (stereo partly drawn)	label 0
Cc1cccc(C2NC(=O)c3ccccc3N2)c1 (stereo not drawn)	label 1
CC(C(=O)O)c1ccc(-n2nnc3c(=O)[nH][nH]c(=O)c32)cc1 (stereo not drawn)	label 0
ClC1=NN=C(c2c[nH]c3ccccc23)CC1NCc1ccccc1 (stereo not drawn)	label 0
C=C(Cl)COC(=O)Nc1cccc(Cl)c1	label 0
O=C1CSC2=NC3=C(COC/C3=C\c3ccc(F)cc3)C(c3ccc(F)cc3)N12 (stereo not drawn)	label 0
CN(C1=NS(=O)(=O)N=C(N(C)c2ccccc2)O1)c1ccccc1	label 0
NC(=O)N/N=C1\CC2C3CC4C2C4C13 (stereo not drawn)	label 0
CN1Cc2cc(O)c(O)cc2C(O)C1 (stereo not drawn)	label 0
COc1ccc(CNc2nc3ccccc3nc2C(=O)O)cc1OC	label 0
CCCCCCCCCCCCCCCCCCNc1ccn(C2OC(COP(=O)(O)OCC3OC(n4cc(C)c(=O)[nH]c4=O)CC3O)C(O)C2O)c(=O)n1 (stereo not drawn)	label 0
O=C1Nc2ccccc2/C1=C1/Nc2ccccc2/C1=N\OCCNCC(O)C(O)C(O)C(O)CO (stereo not drawn)	label 0
Brc1ccc2c3c1[C@@H]1O[C@@H]1c1cccc(c1-3)[C@@H]1O[C@H]21	label 0
CC1(C)CC(C2=NCCO2)CC(C)(C)N1	label 0
Cc1cc(C)c2c(n1)S(=O)(=O)N(CCCN1CCN(c3cccc(C(F)(F)F)c3)CC1)C(C(=O)c1ccc(Cl)cc1)=C2O	label 0
NC(=O)Nc1ccc(S(=O)(=O)Nc2ccc(S(N)(=O)=O)cc2)cc1	label 0
CN1CCCC(OC(=O)c2cc3cc(CCl)ccc3oc2=O)C1 (stereo not drawn)	label 0
CCC1(O)CC(CCN(Cc2ccccc2)C(=O)OCc2ccccc2)C(OCc2ccccc2)C1O (stereo not drawn)	label 0
C#CCn1c(=O)ccn(/C(=C/C(=O)OCC)C(=O)OCC)c1=O	label 0
COC(=O)c1ccccc1CC1Cc2cc3c(cc2C1=O)CCC3 (stereo not drawn)	label 0
O=S(=O)(O)CCSSCCS(=O)(=O)O	label 0
CN(C)CCCOC(=O)C(O)(Cc1ccccc1)C1CC1 (stereo not drawn)	label 0
CN(C)CCNC(=O)c1cccc2c(NC(CCCNC(=N)N)C(=O)O)c3ccccc3[n+](C)c12 (stereo not drawn)	label 0
CCCCC(C(=O)N/N=C/c1ccc([N+](=O)[O-])o1)C(=O)N/N=C/c1ccc([N+](=O)[O-])o1	label 0
CCOC(=O)c1ccc(C(=O)/C(C#N)=C2\CCCN2)[nH]1	label 0
CC(=O)OCC(C)(COC(C)=O)N1C(=O)C2C3c4ccccc4C(c4ccccc43)C2C1=O (stereo not drawn)	label 0
Clc1cc(Br)c2c3c(c(Br)cc(Cl)c13)C(Br)=C2Br	label 0
CN(C)CCN1C(=O)c2ccccc2C1(O)c1ccc(Cl)cc1 (stereo not drawn)	label 0
CC(=O)NC(CCCCN(Cc1ccccc1)C(=O)N(CCCl)N=O)C(=O)NCc1ccccc1 (stereo not drawn)	label 0
O=C(/C=C/c1ccc(Cl)cc1)c1cccs1	label 0
O=S(=O)(N=S(c1ccc(Cl)cc1)c1ccc(Cl)cc1)c1ccccc1	label 0
CCCOP(=O)(OCCC)OC(C(F)(F)F)C(F)(F)F	label 0
CC(C)S(=O)(=O)ON1C(=O)c2ccc(N(C)C)cc2C1=O	label 0
O=C1c2c(ccc3c2CCCC3)CC12Cc1ccccc1C2	label 0
COC(=O)C(Cc1ccccc1)NP(=O)(O)OCC1OC(n2cc(F)c(=O)[nH]c2=O)CC1O (stereo not drawn)	label 0
OC(c1nc2ccccc2s1)(C(F)(F)F)C(F)(F)F	label 0
Cc1nc2ccc(NCCN(C)C)c3c(=O)c4ccccc4n1c23	label 0
[N-]=[N+]=C(C(=O)N1CCCC1=O)S(=O)(=O)c1ccccc1	label 0
COc1cc(/C=C2/SC(c3ccccc3)N(c3cccc(Cl)c3)C2=O)cc(OC)c1OC (stereo not drawn)	label 0
C=CCSc1nn(CC=C)cc2ncnc1-2	label 0
COc1cc(C2SCC(=O)N2c2ccc(NC(=O)c3ccc(N4C(=O)CSC4c4cc(OC)c(OC)c(OC)c4)cc3)cc2)cc(OC)c1OC (stereo not drawn)	label 0

* * *

Test system: IGROV-1
method: NCI tumour cell line growth inhibition, 48 h
Calls of active or inactive are those of the source. Rule as the data show it: active = GI50 up to about 1.1 µM and inactive = higher.

compound	assayedTarget	GI50
COc1ccc(OC)c2sc(N3C(=O)/C(=C/c4ccc(Cl)cc4)N=C3c3ccccc3)nc12	IGROV-1	85.9 µM (inactive)
CCOc1cc(NC(C)=O)ccc1C(=O)NNS(=O)(=O)c1ccc(NC(C)=O)cc1	IGROV-1	43.9 µM (inactive)
O=C1CCC2(CC1)Cc1ccccc1C2O (stereo not given)	IGROV-1	> 100 µM (inactive)
COc1ccccc1C1c2cc3c(cc2OC2(OC)COC(=O)C12)OCO3 (stereo not given)	IGROV-1	13.1 µM (inactive)
Cn1c(=O)sc2cc(C(=S)N3CCOCC3)ccc21	IGROV-1	> 51.5 µM (inactive)
CC#CCC1CCC(OCC)=CC1=O (stereo not given)	IGROV-1	> 100 µM (inactive)
CCC1(O)CC(OC2CC(N(C)C)C(OC3CC(O)C(OC4OC(C)C(=O)C=C4N)C(C)O3)C(C)O2)c2c(cc3c(c2O)C(=O)c2c(O)cccc2C3=O)C1C(=O)OC (stereo not given)	IGROV-1	0.00302 µM (active)
N=C(N)NCCCC(Nc1c2ccccc2[n+]([O-])c2ccccc12)C(=O)O (stereo not given)	IGROV-1	> 100 µM (inactive)
COC1=C(OC)C(O)(c2ccccc2)C1=O (stereo not given)	IGROV-1	> 100 µM (inactive)
N#Cc1ccc(OCc2nc3cc(C(F)(F)F)ccc3nc2-c2ccccc2)cc1	IGROV-1	> 100 µM (inactive)

* * *

System: T47D
method: NCI tumour cell line growth inhibition, 48 h
The source made the active and inactive calls. Cut-off read from the data, not from the text of the source: active = GI50 up to about 1.1 µM and inactive = higher.
Possible outcomes: T = active, F = inactive

compound	assignedCategory
Oc1cc(-c2ccc(F)cc2)nc2ncccc12	F
Nc1c2c(nc3ccccc13)-c1ccccc1NCCC2	F
CCCCC(C#N)(OP1(=O)OC(c2ccccc2)C(C)N1C)c1ccccc1 (configuration not stated)	F
O=S(=O)(NC1CCCCC1)c1ccc2c(c1)OCCOCCOCCOCCO2	F
CCCCC(C(=O)N/N=C/c1ccc([N+](=O)[O-])o1)C(=O)N/N=C/c1ccc([N+](=O)[O-])o1	F
CCC1(O)CC(OC2CC(N(C)C)C(OC3CC(O)C(OC4OC(C)C(=O)C=C4N)C(C)O3)C(C)O2)c2c(cc3c(c2O)C(=O)c2c(O)cccc2C3=O)C1C(=O)OC (configuration not stated)	T
c1ccc(-c2nnc(-c3ccccn3)c3c2C[C@@H]2C[C@@H]4Cc5c(-c6ccccn6)nnc(-c6ccccn6)c5[C@@H]4[C@H]32)nc1	F

* * *

Test system: MDA-N
method: NCI tumour cell line growth inhibition, 48 h
Calls of active or inactive are those of the source. No stated cut-off is given here; in the data, active = GI50 up to about 1.1 µM and inactive = higher.

compound	assayedTarget	GI50
CN(C)c1ncnc2c1ncn2CCn1cnc2c(N(C)C)ncnc21	MDA-N	> 100 µM (inactive)
CN(C(=O)c1ccc(Cl)s1)C(=S)N(C)C(=O)c1ccc(Cl)s1	MDA-N	> 10 µM (inactive)
Cc1c(CNc2ccc(Cl)c(C(=O)NC(CC(=O)O)C(=O)O)c2)ccc2nc(N)nc(N)c12 (configuration not stated)	MDA-N	< 0.01 µM (active)
COc1ccc(OC)c2sc(N3C(=O)/C(=C/c4ccc(Cl)cc4)N=C3c3ccccc3)nc12	MDA-N	34.2 µM (inactive)
Nc1cc(Cl)cc2cc(Cl)cnc12	MDA-N	> 100 µM (inactive)
CC(C)OC(=O)c1cc(NC(=S)OC(C)C)ccc1Cl	MDA-N	23.1 µM (inactive)
CCOC(=O)c1c(-c2ccccc2)c(-c2ccccc2)cn1C	MDA-N	> 10 µM (inactive)
COc1cc2nc(Nc3cccc(Br)c3)nc(Nc3cccc(Br)c3)c2cc1OC	MDA-N	18.7 µM (inactive)
CSc1cc(N)ccc1/N=N/c1ccc(S(N)(=O)=O)cc1	MDA-N	61.7 µM (inactive)
O=C1/C(=C/c2cccc([N+](=O)[O-])c2)CCCc2ccccc21	MDA-N	9.33 µM (inactive)
CS(=O)(=O)c1nc(-c2cc3c(c(S(C)(=O)=O)n2)CCC3)cc2c1CCCCC2	MDA-N	> 100 µM (inactive)
Nc1ccc(-c2cssc2=S)cc1	MDA-N	30.4 µM (inactive)

* * *

Test system: A549
method: NCI tumour cell line growth inhibition, 48 h
The source made the active and inactive calls. No stated cut-off is given here; in the data, active = GI50 up to about 1.1 µM and inactive = higher.
Possible outcomes: 1 for active, -1 for inactive

compound	assignedCategory
NC(Cc1cccnn1)C(=O)O (stereo not given)	-1
O=C(c1cccc(OCc2ccccc2)c1OCc1ccccc1)N1CCSC1=S	-1
Nc1c(C(=O)c2ccccc2)nnc2ccccc12	-1
CCCCCCCCCOC(=S)NC	-1
c1ccc(C2=Nn3c(CCCCCCCCc4nnc5n4N=C(c4ccccc4)CS5)nnc3SC2)cc1	-1
C=C1C(=O)O[C@@H]2C[C@]3(C)[C@@H](C[C@H]12)[C@](C)(O)CC[C@@H]3O	-1
O=C1CCC(=O)c2cc(Br)ccc2N1	-1
Oc1cc(-c2ccc(F)cc2)nc2ncccc12	-1
CC(=O)NC1C(OCc2ccccc2)OC(CO)C(O)C1OCC(=O)NC(C)C(=O)NC(CCC(=O)NCCCCCNc1c2ccccc2nc2cccc([N+](=O)[O-])c12)C(N)=O (stereo not given)	1
CCCCCCCCCCCCCCCCOCC(COP(=O)(O)OCC1OC(n2cc(CC)c(=O)[nH]c2=O)CC1O)OC(=O)CCCCCCCCCCCCCCC (stereo not given)	-1
c1ccc2c(c1)C1=NCCN1c1ccccc1-2	-1
O=C(O)C1C2OC(C(Br)C2Br)C1C(=O)O (stereo not given)	-1
O=C(/C=C\c1ccc([N+](=O)[O-])cc1)c1ccccc(=O)c1O	1
Cc1ccc(/C=C2\CCC/C(=C\c3ccc(O)c(CN4CCCCC4)c3)C2=O)cc1	-1
CCOC(=O)C(C)(C)Oc1ccc(/C=C/C(=O)c2ccc(Cl)cc2)cc1	-1
NS(=O)(=O)c1ccc(/N=N/c2cccnc2O)cc1	-1
CN1CCCC(OC(=O)c2cc3cc(CCl)ccc3oc2=O)C1 (stereo not given)	-1
O=C(/C=C/c1ccc2c(c1)OCO2)Cc1nc2ncccc2[nH]c1=O	-1
CC(C)(C)c1ccc2c(c1)S(=O)(=O)Nc1cccc(c1)NS(=O)(=O)c1cc(C(C)(C)C)ccc1OCCOCCO2	-1
Clc1cc(Br)c2c3c(c(Br)cc(Cl)c13)C(Br)=C2Br	-1
O=C(OCc1ccccc1CN1CCOCC1)c1ccc(Br)cc1	-1
CCOC(=O)C(/C(=N\NC(=O)OC)C(=O)Nc1cc(OC)ccc1OC)c1cnc2ccccc2n1 (stereo not given)	-1
NC1(c2cc3ccccc3s2)CCCC1	-1
CC(C)S(=O)(=O)ON1C(=O)c2ccc(N(C)C)cc2C1=O	-1
COc1ccc(-c2cc(-c3cc(F)c(Cl)cc3Cl)on2)cc1OC	-1
Cc1ccc(/N=N/C(=N\c2ccc(Cl)cc2)c2ccc(N(CCC#N)CCC#N)cc2)cc1	-1
CS(=O)(=O)C1S(=O)(=O)OCCOS1(=O)=O	-1
COc1ccccc1C1c2cc3c(cc2OC2(OC)COC(=O)C12)OCO3 (stereo not given)	-1
CCn1cc(C(=O)O)c(=O)c2cc(F)c(N3CCN(CN4C(=O)/C(=N\c5ncc(Cc6cc(OC)c(OC)c(OC)c6)c(N)n5)c5cc(Cl)ccc54)CC3)cc21	-1
COc1ccc(CNc2nc3ccccc3nc2C(=O)O)cc1OC	-1
O=C(CCC/C(CC(=O)c1ccc(Br)cc1)=N\O)Nc1ccccc1	-1
CC(=O)OCCCC(NC(=O)OC(C)(C)C)C(=O)NC(CCCOC(C)=O)C(=O)NC(Cc1ccc([N+](=O)[O-])cc1)C(=O)NCC(=O)OCc1ccccc1 (stereo not given)	-1
Cc1nc2ccc(NCCN(C)C)c3c(=O)c4ccccc4n1c23	-1
OC1OC2COC(c3ccccc3)OC2C(O)C1O (stereo not given)	-1
CCC1(O)CC(CCN(Cc2ccccc2)C(=O)OCc2ccccc2)C(OCc2ccccc2)C1O (stereo not given)	-1
CCCCOC(=O)C(=O)C(CC(CC)C(=O)c1ccccc1)C(=O)C=C(C)C (stereo not given)	-1
CCC1(O)CC(OC2CC(N(C)C)C(OC3CC(O)C(OC4OC(C)C(=O)C=C4N)C(C)O3)C(C)O2)c2c(cc3c(c2O)C(=O)c2c(O)cccc2C3=O)C1C(=O)OC (stereo not given)	1
CN1Cc2cc(O)c(O)cc2C(O)C1 (stereo not given)	-1
CC[C@H]1C=CCC[C@@]2(C[C@@H]3CC[C@@H]4[C@H](C(=O)OCCCCCCCCCCCCCCCC(=O)N(CCCNC(C)=O)C[C@H](CCNC(C)=O)OC(C)=O)[C@]5(CCC[C@@H](C)O5)NC(=[N+]34)N2)O1	1
Cc1ccc(C)n1-c1ccccc1C1SCCCS1	-1

Reference for the values: ChEMBL document CHEMBL1201862
